Source of measurements: patent US20250129092A1

# study_target: UniProtKB P35869
# Sequence (P35869 11-848): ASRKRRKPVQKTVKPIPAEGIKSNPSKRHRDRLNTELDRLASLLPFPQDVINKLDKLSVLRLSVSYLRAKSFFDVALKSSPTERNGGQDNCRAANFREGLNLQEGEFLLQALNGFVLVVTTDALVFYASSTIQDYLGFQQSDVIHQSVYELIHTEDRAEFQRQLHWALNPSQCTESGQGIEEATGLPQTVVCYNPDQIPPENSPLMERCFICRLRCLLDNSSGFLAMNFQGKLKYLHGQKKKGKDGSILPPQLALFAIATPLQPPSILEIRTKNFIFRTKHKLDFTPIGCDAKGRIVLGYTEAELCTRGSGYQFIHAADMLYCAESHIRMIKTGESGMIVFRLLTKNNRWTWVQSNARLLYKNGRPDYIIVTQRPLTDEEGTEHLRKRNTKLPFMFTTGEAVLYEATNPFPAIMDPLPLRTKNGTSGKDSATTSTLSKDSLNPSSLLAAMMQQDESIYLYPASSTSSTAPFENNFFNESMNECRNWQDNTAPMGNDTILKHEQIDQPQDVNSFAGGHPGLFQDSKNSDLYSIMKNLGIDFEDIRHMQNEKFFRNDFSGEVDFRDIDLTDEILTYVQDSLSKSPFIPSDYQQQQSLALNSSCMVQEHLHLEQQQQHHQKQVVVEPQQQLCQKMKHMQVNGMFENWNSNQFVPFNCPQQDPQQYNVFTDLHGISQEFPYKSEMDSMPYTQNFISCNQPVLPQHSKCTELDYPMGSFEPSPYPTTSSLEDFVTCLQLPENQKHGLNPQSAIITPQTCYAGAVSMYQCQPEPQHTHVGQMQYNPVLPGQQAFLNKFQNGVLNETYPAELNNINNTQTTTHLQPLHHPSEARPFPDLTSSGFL
# experiment_notes: AhR antagonism in U937 cells (Promega P450-Glo assay)
# Type: cell-based
# Set-up: endogenous in cells; host or cells: U937 cells
# stated_conditions: CYP1A1 activity readout (Luciferin-CEE), head names VAF347, average, read-out: U937 Antagonist pIC50-VAF347: av. pIC50 (converted)
measurement_name: IC50 (nM)

CCc1nc(C)c(-c2nc3c(c(NCCc4c[nH]c5ccccc45)n2)OCCN3)s1	89.1

A: CN1CCOc2c(NCCc3c[nH]c4ccccc34)nc(-c3ccc[nH]c3=O)nc21
B: COC[C@@H]1COc2c(NCCc3c[nH]c4cc(F)ccc34)nc(-c3ccc[nH]c3=O)nc2N1
C: O=c1[nH]cc(F)cc1-c1nc2c(c(NCCc3c[nH]c4ccccc34)n1)OCCN2
D: Cc1ncc(-c2nc3c(c(N[C@H]4Cc5cccc6[nH]cc(c56)C4)n2)OCCN3)s1 (single isomer, unassigned)
stdin: Arrange items by their IC50 values in increasing order. Sort and list the labels as requested.
stdout: C, B, A, D

I: O=c1[nH]cccc1-c1nc2c(c(OCCc3c[nH]c4ccccc34)n1)OCCN2
II: Cc1ncc(-c2nc(NCCc3c[nH]c4ccccc34)c3c(n2)N[C@H](CO)CO3)s1
stdin: Hi, I'm comparing two records. Which one has the lower IC50, I or II ? Returns: label corresponding to the selected item.
stdout: I
(I: 2.69 nM, II: 4.27 nM)

###

# study_target: AhR (Homo sapiens, UniProt P35869)
# experiment_notes: AhR antagonism in U937 cells (Promega P450-Glo assay)
# Assay type: cell-based
# Design: endogenous in cells; host or cells: U937 cells
# stated_conditions: CYP1A1 activity readout (Luciferin-CEE), head names VAF347, average, read-out: U937 Antagonist pIC50-VAF347: av. pIC50 (converted)
# Protocol: In Vitro Assay 1: AhR Antagonism in U937 Cells (Promega P450-Glo™ Assay) AhR antagonism was assessed in LJ937 cells (myeloid lineage cell line derived from a human histiocytic lymphoma). Ligand binds the AhR in the cytoplasm, and the AhR-ligand complex translocates to the nucleus and forms a heterodimer with AhR nuclear translocator (Arnt). […] CYP1A1 activity is subsequently determined by assessing the conversion of Luciferin-CEE to luciferin, which in turn reacts with luciferase to produce light. […]
measurement_name: IC50 (nM)

# count of solved cases: 3
O=c1[nH]cccc1-c1nc2c(c(NCCc3c(Cl)[nH]c4ccccc34)n1)OCCN2	15.1
Fc1cncc(-c2nc3c(c(N[C@@H]4CCc5[nH]c6ccccc6c5C4)n2)OCCN3)c1	16.2
COC[C@@H]1COc2c(NCCc3c[nH]c4ccccc34)nc(-c3cnc(C)s3)nc2N1	3.8

P: FC(F)Oc1ncccc1-c1nc2c(c(NCCc3c[nH]c4ccccc34)n1)OCCN2
Q: COC[C@H]1COc2c(NCCc3c[nH]c4ccccc34)nc(-c3ccc[nH]c3=O)nc2N1
R: COC[C@@H]1COc2c(NCCc3c[nH]c4ccccc34)nc(-c3ccc(F)cc3)nc2N1
S: Cc1c[nH]c(=O)c(-c2nc3c(c(NCCc4c[nH]c5ccccc45)n2)OCCN3)c1
stdin: // ascending sort on recorded IC50 Labels, requested order.
stdout: Q, R, S, P
(Q: 3.8 nM, R: 12 nM, S: 33.1 nM, P: 123 nM)
